Tested on: IgE (Homo sapiens), P01854-1
Sequence (P01854 other isoform, or with tags, fused parts or gaps): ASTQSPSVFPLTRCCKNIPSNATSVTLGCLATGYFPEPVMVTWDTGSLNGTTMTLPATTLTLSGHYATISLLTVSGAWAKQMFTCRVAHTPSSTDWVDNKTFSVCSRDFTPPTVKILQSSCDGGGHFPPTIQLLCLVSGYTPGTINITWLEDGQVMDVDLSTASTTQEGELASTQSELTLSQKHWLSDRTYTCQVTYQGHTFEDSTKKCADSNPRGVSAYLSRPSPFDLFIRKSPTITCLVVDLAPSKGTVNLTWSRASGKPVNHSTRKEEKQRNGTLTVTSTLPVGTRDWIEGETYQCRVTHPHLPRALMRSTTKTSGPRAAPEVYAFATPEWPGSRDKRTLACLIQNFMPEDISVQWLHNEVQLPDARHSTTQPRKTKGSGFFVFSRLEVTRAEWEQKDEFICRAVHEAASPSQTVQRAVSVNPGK
protocol_notes: filter
measurement_conditions: as ARC1335 with dI at 14; 3'-idT; DPBS with Ca/Mg, BSA, RT; parent ARC1335 15 nM
endpoint_label: Kd

INSERT INTO measurements (polymer_sequence, result) VALUES
  ('AGCCUGGGGACCCNUGGGGGGCU [ARC1560]', '3 nM');

----------
Test system: IgE (Homo sapiens), P01854-1
protocol_notes: filter
measurement_conditions: ARC445 with 2'-OMe purines at 1, 2, 7, 10, 14, 17; other purines 2'-deoxy; 2'-OMe pyrimidines; 3'-idT (last t of SEQ); DPBS with Ca/Mg, BSA, RT; other runs 15 nM (Table 9), 2.8 nM (Table 11)
endpoint_label: Kd (pM)

INSERT INTO measurements (polymer_sequence, experimental_system, display_unit, numeric_result) VALUES
  ('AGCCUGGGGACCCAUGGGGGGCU [ARC1335]', 'IgE (Homo sapiens), P01854-1', 'pM', 300);
